System name: T1, biotinylated CRH (human and mouse, not fully specified; biotinylated, position not stated)
T1 construct: also called Biotin-CRH; biotin-labeled CRH
T1 peptide: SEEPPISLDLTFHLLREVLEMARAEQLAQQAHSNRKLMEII
Assay protocol: Octet BLI, biotinylated CRH on SA sensor
Label key: Condition met means kon under 400000 M⁻¹ s⁻¹; Condition not met means kon of 400000 M⁻¹ s⁻¹ or more.

// known answers, use as guide
# check: kon < 400000 M⁻¹ s⁻¹ for PR005656 (antibody, human IgG1, kappa, V domains shown, PTM-removal variant of PR004290) VH: EVQLVESGGVLVQPGGSLRLSCAASGFTFSSYWMTWVRQAPGKGLEWVANIKQEGSEKYYVDSVKGRFTISRDNAKNSLFLQMNSLRAEDTAVYYCARTLIFDYWGQGTLVTVSS VL: DIVMTQSPLSLPVTPGEPASISCRSSQSLLHSTGYNSLEWYLQKPGQSPQLLIYLGSNRASGVPDRFSGSGSGTDFTLKISRVEAEDVGIYYCMQTLQTPITFGQGTRLEIKR
Condition not met

Follow-up item: PR302309-18 (antibody, human IgG1, kappa, V domains shown, Humanized variant of PR302309) VH: QVQLVQSGAEVKKPGASVKVSCKASGYTFTNYGMNWVRQAPGQRLEWMGWINTYTGEPIYTDDFKGRVTITRDTSASTAYMELSSLRSEDTAVYYCARSTMITTGGVFAYWGQGTLVTVSS VL: DVVMTQSPLSLPVTLGQPASISCRSSQTIVHSDGNTYLEWYQQRPGQSPRLLIYKVSNRFSGVPDRFSGSGSGTDFTLKISRVEAEDLGVYYCFQGSHVPWTFGGGTKVEIKR
Condition met

New cases:
Lab note: confirm whether the reported kon for this binder is below 400000 M⁻¹ s⁻¹, equality not counting. binder: PR302341-60 (antibody, human IgG1, kappa, V domains shown, Humanized, PTM-removed variant of PR302341) VH: QVQLVQSGAEVKKPGASVKVSCKASGYTFTDYFMKWVRQAPGQRLEWMGVINPNQGDIFYNQKFKGRVTITRDTSASTAYMELSSLRSEDTAVYYCARGTDRALFAYWGQGTLVTVSS VL: DVVMTQSPLSLPVTLGQPASISCRSGQSIVHSDANTYLEWYQQRPGQSPRLLIYKVSNRFSGVPDRFSGSGSGTDFTLKISRVEAEDLGVYYCFQGSHIPWTFGGGTKVEIKR
Condition not met
